# tgt: MEK1 (Homo sapiens)
# Construct: purchased Millipore 14-420 (GST-MEK1); 14-703 (Cot1); host or cells: Cot1: insect cells (SF21)
# Sequence (Q02750 whole entry): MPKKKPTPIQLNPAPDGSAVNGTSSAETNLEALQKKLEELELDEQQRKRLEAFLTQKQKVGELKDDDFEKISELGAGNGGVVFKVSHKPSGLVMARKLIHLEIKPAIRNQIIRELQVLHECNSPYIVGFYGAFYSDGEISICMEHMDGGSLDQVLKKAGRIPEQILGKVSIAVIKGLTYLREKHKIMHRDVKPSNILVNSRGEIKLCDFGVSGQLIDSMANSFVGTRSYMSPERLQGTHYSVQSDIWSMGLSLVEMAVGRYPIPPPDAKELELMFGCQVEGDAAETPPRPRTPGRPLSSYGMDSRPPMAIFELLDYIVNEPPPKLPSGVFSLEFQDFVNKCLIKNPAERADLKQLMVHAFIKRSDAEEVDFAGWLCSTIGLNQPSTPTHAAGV
# experimental.details: MEK1 activation kinase assay (Assay 2, HTRF; Cot1 phosphorylates GST-MEK1)
# Format: biochemical
# measurement.context: mean values from 2 or more measurements; read-out: Assay 2 IC50 values (nanomolar) (MEK1 activation kinase assay) (values are mean values from 2 or more measurements)
pIC50: −log10 of the molar value.
Documented pIC50 across a set of compounds
result.type: pIC50

compound: CN(C)S(=O)(=O)Nc1cccc(Oc2cc(F)cc(Nc3ccc(I)cc3F)c2C(N)=O)c1 [Example 2.1]
result.type: pIC50
quantitative.readout: 7.66

compound: C[C@H](CO)NC(=O)c1c(Nc2ccc(I)cc2F)cc(F)cc1Oc1cccc(NS(=O)(=O)N(C)C)c1 [Example 4.20]
result.type: pIC50
quantitative.readout: 7.05

compound: CC(C)(O)C(O)CCOc1cc(F)cc(Nc2ccc(I)cc2F)c1C(N)=O (single isomer, unassigned) [Example 6.3]
result.type: pIC50
quantitative.readout: 7.51

compound: NC(=O)c1c(Nc2ccc(I)cc2F)cc(F)cc1Oc1cccc(CS(N)(=O)=O)c1 [Example 4.33]
result.type: pIC50
quantitative.readout: 7.50

compound: CCS(=O)(=O)N1CCC[C@H]1COc1cc(F)cc(Nc2ccc(I)cc2F)c1C(N)=O [Example 5.34]
result.type: pIC50
quantitative.readout: 7.02

compound: CS(=O)(=O)Cc1cccc(Oc2cc(F)cc(Nc3ccc(I)cc3F)c2C(N)=O)c1 [Example 4.34]
result.type: pIC50
quantitative.readout: 7.63

compound: C[C@@H](O)CNC(=O)c1c(Nc2ccc(I)cc2F)cc(F)cc1Oc1cccc(NS(=O)(=O)N(C)C)c1 [Example 4.22]
result.type: pIC50
quantitative.readout: 6.79

compound: CC(C)(C)OC(=O)Nc1cccc(Oc2c(F)c(F)c(F)c(Nc3ccc(I)cc3F)c2C(N)=O)c1 [Example 2.19]
result.type: pIC50
quantitative.readout: 6.82

compound: NC(=O)c1c(Nc2ccc(I)cc2F)cc(F)cc1Oc1cccc(NC(=O)c2cc[nH]n2)c1 [Example 5.81]
result.type: pIC50
quantitative.readout: 7.02

compound: CCS(=O)(=O)N1CCC[C@@H]1COc1cc(F)cc(Nc2ccc(I)cc2F)c1C(N)=O [Example 5.33]
result.type: pIC50
quantitative.readout: 7.04

compound: NC(=O)c1c(Nc2ccc(I)cc2F)cc(F)cc1Oc1cccc(NS(=O)(=O)c2c[nH]cn2)c1 [Example 5.49]
result.type: pIC50
quantitative.readout: 7.80

compound: CS(=O)(=O)NCc1cccc(Oc2cc(F)cc(Nc3ccc(I)cc3F)c2C(N)=O)c1 [Example 5.68]
result.type: pIC50
quantitative.readout: 7.36

compound: CS(=O)(=O)N1CCC[C@@H]1COc1cc(F)cc(Nc2ccc(I)cc2F)c1C(N)=O [Example 5.32]
result.type: pIC50
quantitative.readout: 7.45

compound: NC(=O)c1c(Nc2ccc(I)cc2F)cc(F)cc1Oc1cccc(NC(=O)c2ccon2)c1 [Example 5.84]
result.type: pIC50
quantitative.readout: 7.12

compound: CC(O)(CO)CCOc1cc(F)cc(Nc2ccc(I)cc2F)c1C(N)=O (single isomer, unassigned) [Example 6.5]
result.type: pIC50
quantitative.readout: 6.76

compound: NC(=O)c1c(Nc2ccc(I)cc2F)cc(F)cc1Oc1cncc(NS(=O)(=O)c2c[nH]cn2)c1 [Example 5.93]
result.type: pIC50
quantitative.readout: 7.07

compound: C#Cc1ccc(Nc2cc(F)cc(Oc3cccc(NS(=O)(=O)NCCC)c3)c2C(N)=O)c(F)c1 [Example 7.3]
result.type: pIC50
quantitative.readout: 7.33

compound: Cn1cncc1C(=O)Nc1cccc(Oc2cc(F)cc(Nc3ccc(I)cc3F)c2C(N)=O)c1 [Example 5.82]
result.type: pIC50
quantitative.readout: 7.30

compound: CNC(=O)c1c(Nc2ccc(I)cc2F)cc(F)cc1Oc1cccc(NS(=O)(=O)N(C)C)c1 [Example 4.17]
result.type: pIC50
quantitative.readout: 7.21

compound: CC(C)(O)C(O)CCOc1cc(F)cc(Nc2ccc(I)cc2F)c1C(N)=O (single isomer, unassigned) [Example 6.4]
result.type: pIC50
quantitative.readout: 7.53

compound: CN(C)C(=O)N1CCN(CCOc2cc(F)cc(Nc3ccc(I)cc3F)c2C(N)=O)CC1 [Example 5.30]
result.type: pIC50
quantitative.readout: 6.86

compound: CN(C)S(=O)(=O)Nc1cccc(Oc2cc(F)cc(Nc3ccc(I)cc3)c2C(N)=O)c1 [Example 2.16]
result.type: pIC50
quantitative.readout: 7.33

compound: NC(=O)c1c(Nc2ccc(I)cc2F)cc(F)cc1Oc1cccc(NS(=O)(=O)C2CCCC2)c1 [Example 5.37]
result.type: pIC50
quantitative.readout: 7.69

compound: COCCS(=O)(=O)Nc1cccc(Oc2cc(F)cc(Nc3ccc(I)cc3F)c2C(N)=O)c1 [Example 5.95]
result.type: pIC50
quantitative.readout: 7.60

compound: C[C@@H](CO)NC(=O)c1c(Nc2ccc(I)cc2F)cc(F)cc1Oc1cccc(NS(=O)(=O)N(C)C)c1 [Example 4.21]
result.type: pIC50
quantitative.readout: 6.61

compound: NC(=O)c1c(Nc2ccc(I)cc2F)cc(F)cc1Oc1cccc(NS(=O)(=O)C2CCC2)c1 [Example 5.48]
result.type: pIC50
quantitative.readout: 7.77

compound: CC(=O)NCc1cccc(Oc2cc(F)cc(Nc3ccc(I)cc3F)c2C(N)=O)c1 [Example 5.69]
result.type: pIC50
quantitative.readout: 7.74

compound: CN1CCC[C@H]1COc1cc(F)cc(Nc2ccc(I)cc2F)c1C(N)=O [Example 4.25]
result.type: pIC50
quantitative.readout: 6.74

compound: C#Cc1ccc(Nc2c(F)c(F)c(F)c(Oc3cccc(NS(=O)(=O)N(C)C)c3)c2C(N)=O)c(F)c1 [Example 7.4]
result.type: pIC50
quantitative.readout: 7.91

compound: Cc1cc(I)ccc1Nc1cc(F)cc(Oc2cccc(NS(=O)(=O)N(C)C)c2)c1C(N)=O [Example 2.17]
result.type: pIC50
quantitative.readout: 7.40

compound: CC(=O)Nc1cccc(Oc2cc(F)cc(Nc3ccc(I)cc3F)c2C(N)=O)c1 [Example 5.3]
result.type: pIC50
quantitative.readout: 7.55
